Just for reference, patent US20240270821A1 is where these values come from.

# measured_on: hGLP-1R (Homo sapiens)
# Sequence (P43220 24-463): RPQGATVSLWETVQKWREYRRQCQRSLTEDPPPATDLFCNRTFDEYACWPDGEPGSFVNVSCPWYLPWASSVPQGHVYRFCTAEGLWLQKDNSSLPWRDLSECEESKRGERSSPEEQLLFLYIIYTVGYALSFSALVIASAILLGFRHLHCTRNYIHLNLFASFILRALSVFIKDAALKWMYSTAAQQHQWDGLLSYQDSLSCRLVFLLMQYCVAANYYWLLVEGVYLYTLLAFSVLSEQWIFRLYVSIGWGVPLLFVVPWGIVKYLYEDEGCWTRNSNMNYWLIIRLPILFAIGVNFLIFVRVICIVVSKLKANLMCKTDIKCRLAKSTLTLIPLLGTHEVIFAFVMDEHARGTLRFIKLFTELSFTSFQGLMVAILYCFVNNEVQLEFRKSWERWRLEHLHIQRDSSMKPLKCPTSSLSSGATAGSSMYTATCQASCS
# experiment_notes: Functional cAMP activation in the presence of 0.1% casein (no HSA);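 further: intracellular cAMP rise after 30 min at 37 °C read by HTRF, normalized between buffer only (0%) and maximal control ligand (100%), four-parameter variable-slope fit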
# Type: cell-based
# test_context: in the presence of 0.1% casein (no HSA); geometric mean; read-out: Relative cAMP EC50, hGLP-1R
Starred links: 1 amine or outer side, 2 acyl side, 3 side chain; linkers in the order of their positions; H or OH if unused. Non-standard residues stand in square brackets, D forms with d. Groups on a side chain read outwards from the residue. No end group written: not given here. *: point of attachment. C20 diacid = O=C(O)CCCCCCCCCCCCCCCCCCC(=O)*; C18 diacid = O=C(O)CCCCCCCCCCCCCCCCC(=O)*; αMePhe(2-F) = C[C@](N)(Cc1ccccc1F)C(=O)O; γGlu = O=C(O)[C@H](CCC(=O)[*:2])N[*:1]; αMe4Pal = C[C@](N)(Cc1ccncc1)C(=O)O; 4Pal = N[C@@H](Cc1ccncc1)C(=O)O; αMeL = CC(C)C[C@](C)(N)C(=O)O; Orn = NCCC[C@H](N)C(=O)O; AEEA = NCCOCCOCC(=O)O; Aib = CC(C)(N)C(=O)O
property: pEC50
As a rule, pEC50 stands for the negative log10 of the concentration, concentration in M.

Solved cases (3 shown):
H-Y[Aib]QGTFTSDFS[Orn][αMeL]LD[Orn]K([γGlu-γGlu-C18 diacid])AQ[Aib]AFIE[αMe4Pal]LLEGGPSSGAPPPGGSEE-NH2 [Example 1050] :: 8.12
H-H[Aib]QGT[αMePhe(2-F)]TSDYSILLDKK([AEEA-γGlu-C20 diacid])AA[Aib]AFIEYLIETGPSSGEPPPSEG-NH2 [Example 290] :: 9.47
H-Y[Aib]QGTFTSD[4Pal]SK[αMeL]LDKK([AEEA-γGlu-C18 diacid])AQ[Aib]AFIEYLIE[Aib]GPSSGAPPPSGSEE-NH2 [Example 902] :: 8.59

Data request: Quick check: pEC50 on hGLP-1R (Homo sapiens), item Y[Aib]QGTFTSD[4Pal]SQ[αMeL]LDKK([Glu-Glu-γGlu-C18 diacid])AQ[αMe4Pal]AFIEYLIE[Aib]GPSSGAPPPSGS-NH2 [Example 895] ?
Data returned: 8.43

Data request: Quick check: pEC50 on hGLP-1R (Homo sapiens), item H-Y[Aib]QGT[αMePhe(2-F)]TSDYSKLLDKIAQK([AEEA-γGlu-C20 diacid])AFIEYLIEGGPSSGAPPPSGE-NH2 [Example 356] ?
Data returned: 9.22

Data request: Quick check: pEC50 on hGLP-1R (Homo sapiens), item H-Y[Aib]QGTFTSDFS[Orn][αMeL]LDKK([AEEA-γGlu-C18 diacid])AQ[Aib]AFIEWLLEGGTSSGAPPPSGS-NH2 [Example 176] ?
Data returned: 8.53
